Heads up, these molecules all have pIC50 values measured for dopamine-2 receptor (Rattus norvegicus, UniProt P61169).
pIC50: −log10 of the molar value.
Property name: pIC50

[
  {
    "Molecule": "COc1ccccc1C1CCCN(CCCCN2C(=O)C3CCC(C)(C2=O)C3(C)C)C1 (stereo not shown) [Example 18]",
    "Experimental result": 6.17
  },
  {
    "Molecule": "O=C1Cc2cc(CCN3CCC(c4cccc5ccccc45)CC3)ccc2N1 [Example 4]",
    "Experimental result": 6.74
  },
  {
    "Molecule": "CC12CCC(C(=O)N(CCCCN3CCC(c4cccc5ccccc45)CC3)C1=O)C2(C)C (stereo not shown) [Example 6]",
    "Experimental result": 6.77
  },
  {
    "Molecule": "CC12CCC(C(=O)N(CCCCN3CCCC(c4cccc5ccccc45)C3)C1=O)C2(C)C (stereo not shown) [Example 7]",
    "Experimental result": 5.95
  }
]
